Target: T1, CRF2R
T1 sequence (Q13324 whole entry, species assumed, looked up): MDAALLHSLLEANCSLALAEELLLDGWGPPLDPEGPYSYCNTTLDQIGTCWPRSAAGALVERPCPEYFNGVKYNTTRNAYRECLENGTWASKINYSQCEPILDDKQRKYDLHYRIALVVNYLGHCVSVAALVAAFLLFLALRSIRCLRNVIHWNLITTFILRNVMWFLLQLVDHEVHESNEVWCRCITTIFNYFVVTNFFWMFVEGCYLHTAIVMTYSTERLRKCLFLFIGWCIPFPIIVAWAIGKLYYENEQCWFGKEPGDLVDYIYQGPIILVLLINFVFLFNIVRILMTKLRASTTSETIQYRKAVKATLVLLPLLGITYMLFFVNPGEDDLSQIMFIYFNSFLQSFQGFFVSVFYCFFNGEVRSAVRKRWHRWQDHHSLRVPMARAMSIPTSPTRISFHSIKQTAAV
Assay: cell-based or functional assay
Ends that are not written are not given here.
assay.metric: CRF2R EC50

Name the reported CRF2R EC50 value associated with the binder IVLSLDVPIGLLQILLEQARAAAREQATTNARILARV-NH2 [SEQ ID NO 141]
> 100 nM

Tell me the measured CRF2R EC50 of ZGPPISIDLPTALLRKMIEIEKQEKEKQQAANNRLLLDTI (C-terminal amide) [SEQ ID NO 61] , please.
> 100 nM

Quick one: CRF2R EC50 for ZGPPISIDLPTQLLRKMIEIEKQEKEKQQAANNRLLLDTI (C-terminal amide) [SEQ ID NO 72] ?
> 100 nM

Recorded values, source patent US20030148956A1.
